For each entry below, report its protein stability index value.
System: Saccharomyces cerevisiae
Experiment: protein stability index of tFT-peptide fusion (C-terminal peptide) (PSI (0-1 scale)); higher = more stable (slower turnover)
Details: genetic background: wild type; temperature: 30 C
Answers are plain numbers.

Solved cases below.
sequence-content: SAQRDRRYRKRN [RPS17B C-terminal 12 aa]
protein stability index: 0.649
//
sequence-content: KCQTKHTFTGLI [YGR269W C-terminal 12 aa]
protein stability index: 0.723
//
sequence-content: TKVIQVQKKCIQ [IRC14 C-terminal 12 aa]
protein stability index: 0.672
//
sequence-content: ISDNVPKEAIIM [PSA1 C-terminal 12 aa]
protein stability index: 0.631
//
sequence-content: PNLSRANFTRNK [RSA1 C-terminal 12 aa]
protein stability index: 0.699

Hi team, please reply with protein stability index for each item in this list.
1. LLLSIFSILIVL [YPS7 C-terminal 12 aa]
2. LLYLYDNDHTST [GPI19 C-terminal 12 aa]
3. EDTVNDKANFEG [STL1 C-terminal 12 aa]

1. 0.28
2. 0.691
3. 0.655

Hi team, please reply with protein stability index for each item in this list.
1. MYSSKDNPASPK [TAF1 C-terminal 12 aa]
2. LMAKRFQTGSLK [RTS3 C-terminal 12 aa]
3. VVEALRDAVGDV [NBP35 C-terminal 12 aa]
4. SIYILNVIRNAQ [YGR117C C-terminal 12 aa]

0.674
0.716
0.696
0.538
